Origin of measurements: the METLIN SMRT retention time set (Domingo-Almenara et al. 2019)

Field: RP-LC retention time. Provide a value for each of the compounds that follow.
Assay: gradient 5% acetonitrile 3 min, to 50% in 2 min, to 85% in 15 min, held 3 min, 100 µL/min
Settings: column: Zorbax Extend-C18 2.1 x 50 mm; eluents: water / acetonitrile, 0.1% formic acid
Give bare numbers, in s.

Known RP-LC retention time results, listed for orientation:
get_value(item= CCOc1ccc(S(=O)(=O)N2CCCC(C(=O)NCc3ccccc3)C2)cc1 (stereo not drawn) , readout=RP-LC retention time) returns 878

// RP-LC retention time value for Cc1noc(-c2cc(=O)n(CC(=O)Nc3cc(F)cc(F)c3)c3ccccc23)n1 : 904

Now consider a different compound.
The compound Cc1ccc(CNC(=O)C2(C)CCCN(C(=O)Nc3ccc(F)cc3)C2)cc1 (stereo not drawn) showed RP-LC retention time equal to 899
